Experiment: Spectral properties of the fluorinated rhodamines (absorption, emission, quantum yield, lifetime)
Assay type: physicochemical
Details: aqueous buffer at pH 7
MEASURED PROPERTY: τFL (ns)

O=C(O)c1ccc2c(c1)C1(OC2=O)c2ccc(NCC(F)(F)F)cc2Oc2cc(NCC(F)(F)F)ccc21 :: 4.1
O=C(O)c1ccc2c(c1)C(=O)OC21c2ccc(NCC(F)(F)F)c(S(=O)(=O)O)c2Oc2c1ccc(NCC(F)(F)F)c2S(=O)(=O)O :: 3.9
CN(CCC(=O)O)C(=O)c1ccccc1-c1c2ccc(=NCC(F)(F)F)c(S(=O)(=O)O)c-2oc2c(S(=O)(=O)O)c(NCC(F)(F)F)ccc12 [Compound 16a] :: 4.1
Nc1c(F)cc2c(c1S(=O)(=O)O)Oc1c(cc(F)c(N)c1S(=O)(=O)O)C21OC(=O)c2ccccc21 :: 4.0
Nc1cc2c(cc1F)C1(OC(=O)c3ccccc31)c1cc(F)c(N)cc1O2 :: 3.9
CNc1cc2c(cc1F)C1(OC(=O)c3ccccc31)c1cc(F)c(NC)cc1O2 :: 4.0
